- target.or.test.system: T1, soluble hG-CSFR: amino acids 25-335 of Homo sapiens G-CSFR with mutations C78A, C163S and C228S and a … (Homo sapiens, UniProt Q99062 25-335)
- T1 chain: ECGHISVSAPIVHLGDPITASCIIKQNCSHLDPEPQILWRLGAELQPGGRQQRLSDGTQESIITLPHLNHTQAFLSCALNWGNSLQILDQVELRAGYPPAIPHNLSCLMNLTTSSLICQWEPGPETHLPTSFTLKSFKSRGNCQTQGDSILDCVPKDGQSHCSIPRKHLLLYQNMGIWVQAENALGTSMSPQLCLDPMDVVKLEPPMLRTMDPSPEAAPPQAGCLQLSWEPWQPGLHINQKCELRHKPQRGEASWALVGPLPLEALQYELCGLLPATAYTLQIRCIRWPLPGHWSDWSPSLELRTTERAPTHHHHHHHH
- assay: SPR (Biacore), mAb captured by anti-human IgG, soluble hG-CSFR injected
experimental.endpoint: Kd

Study these solved cases before continuing.
binder	experimental.endpoint	meas.value
C1.2G-1003 (antibody, human IgG4, V domains shown, also called antibody 1003) VH: EVQLLESGGGLVQPGGSLRLSCAASGFTFSLYWMGWVRQAPGKGLEWVSSISSSGGVTPYADSVKGRFTISRDNSKNTLYLQMNSLRAEDTAVYYCAKLGELGSGSTWGQGTLVTVSS VL: DIQMTQSPSSLSASVGDRVTITCRASQGISSYLNWYQQKPGKAPKLLIYYASNLQNGVPSRFSGSGSGTDFTLTISSLQPEDFATYYCQQSWHYPLTFGGGTKVEIK	Kd	0.0682 nM
C1.2G-44 (antibody, human IgG4, V domains shown, HCDR3 wt (VH of C1.2G); also called antibody 44) VH: EVQLLESGGGLVQPGGSLRLSCAASGFTFSLYWMGWVRQAPGKGLEWVSSISSSGGVTPYADSVKGRFTISRDNSKNTLYLQMNSLRAEDTAVYYCAKLGELGWFDPWGQGTLVTVSS VL: DIQMTQSPSSLSASVGDRVTITCRASQGISSYLNWYQQKPGKAPKLLIYYASNLQNGVPSRFSGSGSGTDFTLTISSLQPEDFATYYCQQSYSYPQKFGGGTKVEIK	Kd	0.0733 nM
C1.2G-987 (antibody, human IgG4, V domains shown, also called antibody 987) VH: EVQLLESGGGLVQPGGSLRLSCAASGFTFSLYWMGWVRQAPGKGLEWVSSISSSGGVTPYADSVKGRFTISRDNSKNTLYLQMNSLRAEDTAVYYCAKLGELGQSSAWGQGTLVTVSS VL: DIQMTQSPSSLSASVGDRVTITCRASQGISSYLNWYQQKPGKAPKLLIYYASNLQNGVPSRFSGSGSGTDFTLTISSLQPEDFATYYCQQSIQYPQMFGGGTKVEIK	Kd	0.0446 nM

Look at this binder and give its reported Kd. C1.2G-977 (antibody, human IgG4, V domains shown, also called antibody 977) VH: EVQLLESGGGLVQPGGSLRLSCAASGFTFSLYWMGWVRQAPGKGLEWVSSISSSGGVTPYADSVKGRFTISRDNSKNTLYLQMNSLRAEDTAVYYCAKLGELGEIREWGQGTLVTVSS VL: DIQMTQSPSSLSASVGDRVTITCRASQGISSYLNWYQQKPGKAPKLLIYYASNLQNGVPSRFSGSGSGTDFTLTISSLQPEDFATYYCQQSWVYHLPFGGGTKVEIK 0.246 nM

Would you mind doing C1.2G-79 (antibody, human IgG4, V domains shown, HCDR3 wt (VH of C1.2G); also called antibody 79) VH: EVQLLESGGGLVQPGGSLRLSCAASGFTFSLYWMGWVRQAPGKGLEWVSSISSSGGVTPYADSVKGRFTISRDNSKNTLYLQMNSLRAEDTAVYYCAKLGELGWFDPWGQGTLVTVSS VL: DIQMTQSPSSLSASVGDRVTITCRASQGISSYLNWYQQKPGKAPKLLIYYASNLQNGVPSRFSGSGSGTDFTLTISSLQPEDFATYYCQVSWEYPLTFGGGTKVEIK as well? 0.0613 nM
